Molecular target: Acetylcholinesterase (Homo sapiens)
Sequence (P22303 whole entry): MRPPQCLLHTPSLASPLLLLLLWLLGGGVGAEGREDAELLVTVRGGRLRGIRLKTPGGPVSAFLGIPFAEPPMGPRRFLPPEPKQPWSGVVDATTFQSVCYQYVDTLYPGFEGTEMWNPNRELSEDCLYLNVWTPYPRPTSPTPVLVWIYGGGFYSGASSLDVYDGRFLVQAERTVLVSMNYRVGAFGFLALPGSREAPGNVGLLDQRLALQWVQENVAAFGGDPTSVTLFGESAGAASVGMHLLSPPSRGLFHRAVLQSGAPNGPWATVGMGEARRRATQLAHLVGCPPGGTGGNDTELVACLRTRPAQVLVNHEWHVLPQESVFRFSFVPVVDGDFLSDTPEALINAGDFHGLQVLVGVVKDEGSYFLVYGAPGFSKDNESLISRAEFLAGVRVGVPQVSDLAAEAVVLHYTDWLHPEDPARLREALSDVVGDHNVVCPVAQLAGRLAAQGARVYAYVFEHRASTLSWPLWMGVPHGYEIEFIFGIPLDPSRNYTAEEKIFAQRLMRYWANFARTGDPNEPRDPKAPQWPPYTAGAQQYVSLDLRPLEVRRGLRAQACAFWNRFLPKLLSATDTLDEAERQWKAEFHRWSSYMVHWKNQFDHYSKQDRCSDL
Test: Inhibition of human AChE using acetylthiocholine as substrate by Ellman's method
Measured Property: IC50 (µM)
One number for each entry, in µM.

Smiles Entry: CCCCCOc1nn(CCCCC)c2ccc([N+](=O)[O-])cc12
Target: Acetylcholinesterase (Homo sapiens)
Units Label: µM
IC50: 4.2

Pending molecule:
## Input Specify measured IC50 for `COc1ccc(COc2nn(CCN(C(C)C)C(C)C)c3ccc([N+](=O)[O-])cc23)cc1` .
## Output 91

* * *

Kindly state pKi for each of the entries shown.
Molecular target: UniProt:P21554
Sequence (P21554 whole entry): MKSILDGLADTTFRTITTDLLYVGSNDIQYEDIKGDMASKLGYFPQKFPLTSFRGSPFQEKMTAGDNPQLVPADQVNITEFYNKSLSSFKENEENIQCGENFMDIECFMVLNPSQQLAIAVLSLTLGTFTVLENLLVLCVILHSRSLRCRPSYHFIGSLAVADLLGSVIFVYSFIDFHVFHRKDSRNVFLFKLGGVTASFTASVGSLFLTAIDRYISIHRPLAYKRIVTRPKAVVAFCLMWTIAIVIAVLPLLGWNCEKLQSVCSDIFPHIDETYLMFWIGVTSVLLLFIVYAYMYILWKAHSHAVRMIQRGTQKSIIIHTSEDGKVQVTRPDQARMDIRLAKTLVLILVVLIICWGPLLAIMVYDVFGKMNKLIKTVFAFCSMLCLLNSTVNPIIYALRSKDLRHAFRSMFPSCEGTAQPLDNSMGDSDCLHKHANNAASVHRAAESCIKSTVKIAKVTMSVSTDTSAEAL
Assay: Displacement of [3H]-CP55940 from human CB1 receptor transfected in HEK-293EBNA cells after 90 mins by luminescence counting analysis
Format: cell-based
One number for each entry, as −log10 of the molar value.

Field: example entries. Status: answers known.
Smiles Entry: O=[N+]([O-])c1ccc2c(c1)c(OCc1cccc3ccccc13)nn2CCN1CCCC1
Numeric Readout: 6.22

Smiles Entry: Nc1ccc2c(c1)c(OCc1cccc3ccccc13)nn2CCN1CCCC1
Numeric Readout: 4.96

Smiles Entry: c1ccc2cc(COc3nn(CCN4CCCCC4)c4ccccc34)ccc2c1
Numeric Readout: 5.85

From here, focus on the item given below.
## Input Return pKi for the following molecule: `c1ccc(COc2nn(Cc3ccccc3)c3ccccc23)cc1`
## Output 5.59
